B1: FAM189A2 (parent)
chain: VAAALRYLQIFATRRSCIDESQIS

Variants of: B1
TEST_NAME: protein stability index of a GFP-peptide fusion (GPS, HEK-293T) (PSI 1-6); higher = more stable;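 also: lentivirally expressed fusions sorted by FACS into six bins by GFP to DsRed ratio, PSI derived from sequencing read proportions per bin multiplied by bin number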
CONDITION: c terminus: a fixed tail appended
Assign MET to entries whose protein stability index meets or exceeds 2; assign NOT MET to the rest.

| VARIANT_DESCRIPTION | DISCRETE_LABEL |
| --- | --- |
| C17Y | MET |
| I18H | NOT MET |
| Q9R | MET |
| Y7K | NOT MET |
| A4C | MET |
| I18K | MET |
| R6K | NOT MET |
| Q22H | MET |
| I18S | MET |
| S16L | MET |
| R6S | NOT MET |
| A4H | NOT MET |
| D19C | MET |
| A4E | NOT MET |
| S16D | NOT MET |
| Y7F | MET |
| A12N | NOT MET |
| A4W | MET |
